In this section we review reported viability, T/C values for a set of compounds.
- System: 817829-284-R-J1-PDC complex spheroid viability
- test_summary: Anticancer human tumor 817829-284-R-J1-PDC patient-derived colon adenocarcinoma cell line growth inhibition [POLQ]
- study_conditions: second compound 0.316 µM; first compound 0.1 µM; stronger effect = lower value
All answers are understood in %, so give the number only.

[
  {
    "compound": "C=CC(=O)N1CCN(c2nc(=O)n(-c3c(C)ccnc3C(C)C)c3nc(-c4c(O)cccc4F)c(F)cc23)C(C)C1 (stereo not given) + Cc1cccc(N(C)C(=O)C2C(O)CCN2c2nc(C)cc(C(F)(F)F)c2C#N)c1",
    "result_units": "%",
    "viability, T/C": 109
  }
]

Attention now turns to another entry.
Reported viability, T/C (817829-284-R-J1-PDC complex spheroid viability) for entry COc1cc(C2c3cc4c(cc3C(OC3OC5COC(C)OC5C(O)C3O)C3COC(=O)C23)OCO4)cc(OC)c1O (stereo not given) + Cc1cccc(N(C)C(=O)C2C(O)CCN2c2nc(C)cc(C(F)(F)F)c2C#N)c1 is 41.7

----------
- Tested on: 817829-284-R-J1-PDC complex spheroid viability
- test_summary: Anticancer human tumor 817829-284-R-J1-PDC cell line growth inhibition [POLQ];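 further: spheroids exposed to compounds for 7 days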
- study_conditions: curve of first compound; second compound 0.316 µM
measured_property: IC50 (nM)
All answers are understood in nM, so give the number only.

In the examples that follow, each entry is paired with its recorded IC50.
[
  {
    "compound": "O=C(c1cc(Cc2n[nH]c(=O)c3ccccc23)ccc1F)N1CCN(C(=O)C2CC2)CC1 + COC1C(OC(N)=O)C(O)C(Oc2ccc3c(O)c(NC(=O)c4ccc(O)c(CC=C(C)C)c4)c(=O)oc3c2C)OC1(C)C",
    "IC50 [nM]": 3280
  },
  {
    "compound": "COc1cc(C2c3cc4c(cc3C(OC3OC5COC(C)OC5C(O)C3O)C3COC(=O)C23)OCO4)cc(OC)c1O (stereo not given) + COC1C(OC(N)=O)C(O)C(Oc2ccc3c(O)c(NC(=O)c4ccc(O)c(CC=C(C)C)c4)c(=O)oc3c2C)OC1(C)C",
    "IC50 [nM]": 38.7
  }
]

Record CCc1cc2c(N3CCc4c(cc(Cn5ccnc5)cc4-c4cn(C)nc4C(F)(F)F)C3=O)ccnc2c(OC)n1 + Cc1cccc(N(C)C(=O)C2C(O)CCN2c2nc(C)cc(C(F)(F)F)c2C#N)c1 , field IC50: 4630

----------
In this section we review reported pIC50 values for a set of compounds.
- Test system: 817829-284-R-J1-PDC complex spheroid viability
- test_summary: Anticancer human tumor 817829-284-R-J1-PDC cell line growth inhibition [POLQ];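 further: spheroids exposed to compounds for 7 days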
- study_conditions: curve of first compound; second compound 0.316 µM
Note: pIC50 values are expressed as the negative base-10 logarithm of concentration in M.

In the examples that follow, each entry is paired with its recorded pIC50.
[
  {
    "compound": "CC(C)n1c(=O)n(C)c2cnc3cc(F)c(-c4ccc(OCCCN5CCCCC5)nc4)cc3c21 + Cc1cccc(N(C)C(=O)C2C(O)CCN2c2nc(C)cc(C(F)(F)F)c2C#N)c1",
    "pIC50": 5.08
  },
  {
    "compound": "COc1cccc(OCCCN)c1-c1cc(Nc2cnc(C#N)cn2)n[nH]1 + Cc1cccc(N(C)C(=O)C2C(O)CCN2c2nc(C)cc(C(F)(F)F)c2C#N)c1",
    "pIC50": 8.25
  },
  {
    "compound": "CC[C@@]1(O)C(=O)OCc2c1cc1n(c2=O)Cc2cc3c(CN(C)C)c(O)ccc3nc2-1 + Cc1cccc(N(C)C(=O)C2C(O)CCN2c2nc(C)cc(C(F)(F)F)c2C#N)c1",
    "pIC50": 8.09
  },
  {
    "compound": "CCc1cc2c(N3CCc4c(cc(Cn5ccnc5)cc4-c4cn(C)nc4C(F)(F)F)C3=O)ccnc2c(OC)n1 + COC1C(OC(N)=O)C(O)C(Oc2ccc3c(O)c(NC(=O)c4ccc(O)c(CC=C(C)C)c4)c(=O)oc3c2C)OC1(C)C",
    "pIC50": 5.29
  },
  {
    "compound": "C=CCn1c(=O)c2cnc(Nc3ccc(N4CCN(C)CC4)cc3)nc2n1-c1cccc(C(C)(C)O)n1 + Cc1cccc(N(C)C(=O)C2C(O)CCN2c2nc(C)cc(C(F)(F)F)c2C#N)c1",
    "pIC50": 6.59
  }
]

Record Cn1ncnc1[C@H]1c2n[nH]c(=O)c3cc(F)cc(c23)N[C@@H]1c1ccc(F)cc1 + COC1C(OC(N)=O)C(O)C(Oc2ccc3c(O)c(NC(=O)c4ccc(O)c(CC=C(C)C)c4)c(=O)oc3c2C)OC1(C)C , field pIC50: 7.70

Record CC1COCCN1c1cc(C2(S(C)(=N)=O)CC2)nc(-c2ccnc3[nH]ccc23)n1 (stereo not given) + Cc1cccc(N(C)C(=O)C2C(O)CCN2c2nc(C)cc(C(F)(F)F)c2C#N)c1 , field pIC50: 6.25

----------
- Tested on: 817829-284-R-J1-PDC complex spheroid viability
- test_summary: Anticancer human tumor 817829-284-R-J1-PDC cell line growth inhibition [POLQ];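 further: spheroids exposed to compounds for 7 days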;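 on viability, T/C: 100% = DMSO vehicle-treated spheroids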
- study_conditions: second compound 0.316 µM; first compound 3.16 µM; stronger effect = lower value
measured_property: viability, T/C (%)
All answers are understood in %, so give the number only.

In the examples that follow, each entry is paired with its recorded viability, T/C.
[
  {
    "compound": "C#Cc1c(F)ccc2cc(O)cc(-c3ncc4c(N5CC6CCC(C5)N6)nc(OCC56CCCN5CC(F)C6)nc4c3F)c12 (stereo not given) + Cc1cccc(N(C)C(=O)C2C(O)CCN2c2nc(C)cc(C(F)(F)F)c2C#N)c1",
    "measured_property": "viability, T/C",
    "quantitative_result": 79.7
  },
  {
    "compound": "O=c1[nH]cc(F)c(=O)[nH]1 + COC1C(OC(N)=O)C(O)C(Oc2ccc3c(O)c(NC(=O)c4ccc(O)c(CC=C(C)C)c4)c(=O)oc3c2C)OC1(C)C",
    "measured_property": "viability, T/C",
    "quantitative_result": 51.1
  },
  {
    "compound": "O=C(Nc1ccc(O)c(NS(=O)(=O)c2ccc(F)cc2)c1)c1ccc(-c2ccccc2)cc1 + COC1C(OC(N)=O)C(O)C(Oc2ccc3c(O)c(NC(=O)c4ccc(O)c(CC=C(C)C)c4)c(=O)oc3c2C)OC1(C)C",
    "measured_property": "viability, T/C",
    "quantitative_result": 68.9
  },
  {
    "compound": "CC1COCCN1c1cc(C2(O)CC3CCC(C2)O3)c2cnn(-c3ccn[nH]3)c2n1 (stereo not given) + Nc1ccc(C#CCN(C(=O)Cc2ncc(C(F)(F)F)cc2C(F)(F)F)c2ccc(F)cc2)nn1",
    "measured_property": "viability, T/C",
    "quantitative_result": 3.21
  }
]

Record Nc1ccn(C2OC(CO)C(O)C2(F)F)c(=O)n1 (stereo not given) + Nc1ccc(C#CCN(C(=O)Cc2ncc(C(F)(F)F)cc2C(F)(F)F)c2ccc(F)cc2)nn1 , field viability, T/C: 2.51

----------
- Test system: 817829-284-R-J1-PDC complex spheroid viability
- test_summary: Anticancer human tumor 817829-284-R-J1-PDC cell line growth inhibition [POLQ]; active = viability on the fitted dose curve at most 10% of control; inactive = the rest;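 further: spheroids exposed to compounds for 7 days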
- study_conditions: second compound 10 µM; first compound 0.316 µM
Please reply with one of these outcomes: active, inactive

[
  {
    "compound": "CC1COCCN1c1cc(C2(O)CC3CCC(C2)O3)c2cnn(-c3ccn[nH]3)c2n1 (stereo unspecified) + Cc1cccc(N(C)C(=O)C2C(O)CCN2c2nc(C)cc(C(F)(F)F)c2C#N)c1",
    "cat": "active"
  },
  {
    "compound": "CCc1cc2c(N3CCc4c(cc(Cn5ccnc5)cc4-c4cn(C)nc4C(F)(F)F)C3=O)cc(C)nc2c(OC)n1 + Nc1ccc(C#CCN(C(=O)Cc2ncc(C(F)(F)F)cc2C(F)(F)F)c2ccc(F)cc2)nn1",
    "cat": "inactive"
  },
  {
    "compound": "COc1cccc2c1C(=O)c1c(O)c3c(c(O)c1C2=O)CC(O)(C(=O)CO)CC3OC1CC(N)C(O)C(C)O1 (stereo unspecified) + Cc1cccc(N(C)C(=O)C2C(O)CCN2c2nc(C)cc(C(F)(F)F)c2C#N)c1",
    "cat": "active"
  },
  {
    "compound": "CC1COCCN1c1cc(-c2ccnn2C)c2ccnc(-c3ccn[nH]3)c2n1 (stereo unspecified) + Nc1ccc(C#CCN(C(=O)Cc2ncc(C(F)(F)F)cc2C(F)(F)F)c2ccc(F)cc2)nn1",
    "cat": "active"
  }
]

Ask: Record request — test call for CC1COCCN1c1cc(C2(S(C)(=N)=O)CC2)nc(-c2ccnc3[nH]ccc23)n1 (stereo unspecified) + COC1C(OC(N)=O)C(O)C(Oc2ccc3c(O)c(NC(=O)c4ccc(O)c(CC=C(C)C)c4)c(=O)oc3c2C)OC1(C)C
Result: inactive

Ask: Record request — test call for CCCS(=O)(=O)Nc1ccc(F)c(C(=O)c2c[nH]c3ncc(-c4ccc(Cl)cc4)cc23)c1F + Nc1ccc(C#CCN(C(=O)Cc2ncc(C(F)(F)F)cc2C(F)(F)F)c2ccc(F)cc2)nn1
Result: inactive

Ask: Record request — test call for O=C(c1cc(Cc2n[nH]c(=O)c3ccccc23)ccc1F)N1CCN(C(=O)C2CC2)CC1 + Nc1ccc(C#CCN(C(=O)Cc2ncc(C(F)(F)F)cc2C(F)(F)F)c2ccc(F)cc2)nn1
Result: inactive

Ask: Record request — test call for Nc1ccn(C2OC(CO)C(O)C2(F)F)c(=O)n1 (stereo unspecified) + COC1C(OC(N)=O)C(O)C(Oc2ccc3c(O)c(NC(=O)c4ccc(O)c(CC=C(C)C)c4)c(=O)oc3c2C)OC1(C)C
Result: active

Ask: Record request — test call for CNCc1ccc(-c2[nH]c3cc(F)cc4c3c2CCNC4=O)cc1 + COC1C(OC(N)=O)C(O)C(Oc2ccc3c(O)c(NC(=O)c4ccc(O)c(CC=C(C)C)c4)c(=O)oc3c2C)OC1(C)C
Result: inactive

Ask: Record request — test call for COc1cccc2c1C(=O)c1c(O)c3c(c(O)c1C2=O)CC(O)(C(=O)CO)CC3OC1CC(N)C(O)C(C)O1 (stereo unspecified) + COC1C(OC(N)=O)C(O)C(Oc2ccc3c(O)c(NC(=O)c4ccc(O)c(CC=C(C)C)c4)c(=O)oc3c2C)OC1(C)C
Result: active

Ask: Record request — test call for O=C(Nc1ccc(O)c(NS(=O)(=O)c2ccc(F)cc2)c1)c1ccc(-c2ccccc2)cc1 + Nc1ccc(C#CCN(C(=O)Cc2ncc(C(F)(F)F)cc2C(F)(F)F)c2ccc(F)cc2)nn1
Result: inactive
